tested on: PIK3CD (Human)
method summary: Assessment of PI3KCD Kinase Activity
pIC50: −log10 of the molar value.
Listed here: items and their measured pIC50.

Some solved entries appear below for comparison.
Give the measured pIC50 of Cc1cccc2cc(Cn3nc(-c4cc(O)cc(F)c4)c4c(N)ncnc43)n(C)c(=O)c12 .
> 7.00

For the molecule shown here, Cc1csc2nc(Cn3nc(I)c4c(N)ncnc43)n(-c3ccccc3Cl)c(=O)c12 , give the reported pIC50.
> 7.00

Fill in: pIC50 of Cc1cccc2cc(Cn3nc(C#C[C@@H](C)O)c4c(N)ncnc43)n(-c3ccccc3Cl)c(=O)c12 is ___
> 7.00

I have this molecule here, Nc1ncnc2c1c(-c1cccc(O)c1)nn2Cc1cc2cccc(Cl)c2c(=O)n1C1CC1 , and I need its recorded pIC50.
> 7.00

Fill in the blank: the reported pIC50 of COc1ccccc1-n1c(Cn2nc(I)c3c(N)ncnc32)cc2cccc(C)c2c1=O is ____.
> 7.00

Further cases:
Request the reported pIC50 associated with Cc1cccc2cc(Cn3nc(C#C[C@@H](C)O)c4c(N)ncnc43)n(C(C)C)c(=O)c12
> 7.00

Consider the molecule COc1ccccc1-n1c(Cn2nc(-c3cc(O)cc(F)c3)c3c(N)ncnc32)nc2scc(C)c2c1=O and give its measured pIC50.
> 7.00

Entry Cc1cccc2cc(Cn3nc(-c4cc(O)cc(F)c4)c4c(N)ncnc43)n(-c3ccccc3)c(=O)c12 : reported pIC50 = ?
> 7.00

Requested field: pIC50. Item: Cc1cccc2cc(Cn3nc(I)c4c(N)ncnc43)n(-c3ccccc3Cl)c(=O)c12
> 7.00
